- assayed target: T1, SUDV VLP (Sudan virus (SUDV), UniProt Q66814 33-676)
- T1 sequence: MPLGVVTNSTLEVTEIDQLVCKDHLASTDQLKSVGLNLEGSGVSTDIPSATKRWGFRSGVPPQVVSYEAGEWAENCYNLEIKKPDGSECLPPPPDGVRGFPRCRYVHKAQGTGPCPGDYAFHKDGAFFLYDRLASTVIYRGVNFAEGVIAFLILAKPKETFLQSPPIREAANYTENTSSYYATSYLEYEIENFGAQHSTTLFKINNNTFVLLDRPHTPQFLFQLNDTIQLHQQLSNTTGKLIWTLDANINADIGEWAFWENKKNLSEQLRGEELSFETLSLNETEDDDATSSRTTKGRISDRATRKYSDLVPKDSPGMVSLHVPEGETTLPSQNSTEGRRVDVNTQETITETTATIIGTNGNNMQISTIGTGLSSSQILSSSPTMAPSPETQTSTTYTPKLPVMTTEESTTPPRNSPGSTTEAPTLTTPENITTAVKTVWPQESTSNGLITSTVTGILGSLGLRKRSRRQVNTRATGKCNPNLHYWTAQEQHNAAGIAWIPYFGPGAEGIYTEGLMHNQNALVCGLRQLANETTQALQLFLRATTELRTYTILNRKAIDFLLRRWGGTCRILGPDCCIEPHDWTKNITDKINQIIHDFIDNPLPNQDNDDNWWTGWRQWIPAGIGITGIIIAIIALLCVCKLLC
- assay notes: ELISA

{"columns": ["binder", "EC50 [nM]"],
 "data": [
  ["FVM24 (antibody, V domains shown) VH: EVQLVQSGAEVKRPGESLKISCKTSGYSFTDSWVAWVRQMPGKGLEWMGSIYPGDFQTRYNPSFQGHVTLSADKSISTTYLQWSSLKASDTATYYCVKGSETWGPGVLVTVSS VL: SSGLTQPASLSASPGASASLTCTFSGGINVAGYNILWYQQKAGSPPRYLLRYKSDSTKDQGSGVPSRFSGSKDVSANTGILRISGLQSDDEADYYCAIGHSSGWIFGGGTRLTVL", 3.2],
  ["FVM32 (antibody, V domains shown) VH: QVQLVQSGAEVKRPGESLRISCKTSGYSFTDSWVAWVRQMPGKGLEWLGSIYPGDSDTRYSPSFQGQVTISADKSITTAYLKWSSLKASDTATYYCVKGSETWGQGVLVTVSS VL: QPVLTQPASLSASPGASASLTCTFNGGITVPGYDILWYQQKSGSPPRYLLRYKSDSTKDQGSGVPSRFSGSKDASTNTGILRISGLQSEDEADYYCAIGHSSGWIFGGGTRLTVL", 0.187],
  ["FVM26 (antibody, V domains shown) VH: QVQLVQSGAEVKRPGESLRISCKTSGYTFTDYWIAWVRQMPGKGLEWMGSIYPGDSETKYNPSFQGHVTISADKSVTTTYLKWSRLKASDTATYYCVKGSETWGQGVLVTVSS VL: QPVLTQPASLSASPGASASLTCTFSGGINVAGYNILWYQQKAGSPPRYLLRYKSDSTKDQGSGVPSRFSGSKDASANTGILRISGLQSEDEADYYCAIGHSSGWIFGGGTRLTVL", 0.153],
  ["FVM29 (antibody, V domains shown) VH: EVQLVQSGAEVKRPGESLKISCQTSGNSFTNNWISWVRQMPGKGLEWMGAIDPSDSETRYSPSFQGQVTISADKSINTAYLQWSSLKASDTATYYCVKGSETWGQGVLVTVSS VL: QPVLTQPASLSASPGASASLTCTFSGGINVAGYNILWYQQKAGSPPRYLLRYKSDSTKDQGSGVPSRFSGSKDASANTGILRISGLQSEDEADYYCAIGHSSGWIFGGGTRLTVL", 24.1],
  ["FVM31 (antibody, V domains shown) VH: QVQLVQSGAEVKRPGESLTISCKTSGYSFTDSWVAWVRQMPGKGLEWLGSIYPGDSDARYNPSFQGHVTISADTSVTTTYLKWSSLKASDTATYYCVKGSETWGQGVLVTVSS VL: KPMLTQPASLSASPGASASLTCTFSGGINVAGYNILWYQQKAGSPPRYLLRYKSDSTKDQGSGVPSRFSGSKDASANTGILRISGLQSEDEADYYCAIGHSSGWIFGGGTRLTVL", 0.193]
]}
